# TARGET_OF_ASSAY: EGFR (form used in the assay not stated) (human, UniProt P00533 25-645, limits assumed)
# TEST_METHOD_NOTES: ELISA, NEM conjugate, 100 nM
ASSAY_ENDPOINT: binding relative to P54AR4-83v2 parent (ratio)
Supply the numeric figure in ratio, leaving out any unit text.

Exercise: What does the record list as binding relative to P54AR4-83v2 parent for P54AR4-83v2 R54C, NEM conjugate (designed binder, not shown: small tags and cut ends, N-ethyl maleimide (NEM) on Cys 54) LPAPKNLVVSEVTEDSARLSWDDPWAFYESFLIQYQESEKVGEAIVLTVPGSECSYDLTGLKPGTEYTVSIYGVHNVYKDTNMRGLPLSAIFTT ?
Solution: 1.01

Exercise: Consider next the binder P54AR4-83v2 T68C, NEM conjugate (designed binder, not shown: small tags and cut ends, N-ethyl maleimide (NEM) on Cys 68, not used) LPAPKNLVVSEVTEDSARLSWDDPWAFYESFLIQYQESEKVGEAIVLTVPGSERSYDLTGLKPGTEYCVSIYGVHNVYKDTNMRGLPLSAIFTT in the same way.
Solution: 1.04

Exercise: Record: P54AR4-83v2 G85C, NEM conjugate (designed binder, not shown: small tags and cut ends, N-ethyl maleimide (NEM) on Cys 85) LPAPKNLVVSEVTEDSARLSWDDPWAFYESFLIQYQESEKVGEAIVLTVPGSERSYDLTGLKPGTEYTVSIYGVHNVYKDTNMRCLPLSAIFTT
Solution: 0.02

Exercise: Please do the same for P54AR4-83v2 K40C, NEM conjugate (designed binder, not shown: small tags and cut ends, N-ethyl maleimide (NEM) on Cys 40) LPAPKNLVVSEVTEDSARLSWDDPWAFYESFLIQYQESECVGEAIVLTVPGSERSYDLTGLKPGTEYTVSIYGVHNVYKDTNMRGLPLSAIFTT as well.
Solution: 0.95

Exercise: Request: P54AR4-83v2 L47C, NEM conjugate (designed binder, not shown: small tags and cut ends, N-ethyl maleimide (NEM) on Cys 47) LPAPKNLVVSEVTEDSARLSWDDPWAFYESFLIQYQESEKVGEAIVCTVPGSERSYDLTGLKPGTEYTVSIYGVHNVYKDTNMRGLPLSAIFTT
Solution: 1.02

Exercise: What would you report for P54AR4-83v2 W25C, NEM conjugate (designed binder, not shown: small tags and cut ends, N-ethyl maleimide (NEM) on Cys 25) LPAPKNLVVSEVTEDSARLSWDDPCAFYESFLIQYQESEKVGEAIVLTVPGSERSYDLTGLKPGTEYTVSIYGVHNVYKDTNMRGLPLSAIFTT ?
Solution: 0.64

Exercise: Could you do the same for P54AR4-83v2 D23C, NEM conjugate (designed binder, not shown: small tags and cut ends, N-ethyl maleimide (NEM) on Cys 23) LPAPKNLVVSEVTEDSARLSWDCPWAFYESFLIQYQESEKVGEAIVLTVPGSERSYDLTGLKPGTEYTVSIYGVHNVYKDTNMRGLPLSAIFTT , please?
Solution: 0.2

Exercise: One more binder: P54AR4-83v2 G51C, NEM conjugate (designed binder, not shown: small tags and cut ends, N-ethyl maleimide (NEM) on Cys 51) LPAPKNLVVSEVTEDSARLSWDDPWAFYESFLIQYQESEKVGEAIVLTVPCSERSYDLTGLKPGTEYTVSIYGVHNVYKDTNMRGLPLSAIFTT
Solution: 1.03

Exercise: Please do the same for P54AR4-83v2 Y72C, NEM conjugate (designed binder, not shown: small tags and cut ends, N-ethyl maleimide (NEM) on Cys 72) LPAPKNLVVSEVTEDSARLSWDDPWAFYESFLIQYQESEKVGEAIVLTVPGSERSYDLTGLKPGTEYTVSICGVHNVYKDTNMRGLPLSAIFTT as well.
Solution: 1

Exercise: Follow-up entry: P54AR4-83v2 S38C, NEM conjugate (designed binder, not shown: small tags and cut ends, N-ethyl maleimide (NEM) on Cys 38) LPAPKNLVVSEVTEDSARLSWDDPWAFYESFLIQYQECEKVGEAIVLTVPGSERSYDLTGLKPGTEYTVSIYGVHNVYKDTNMRGLPLSAIFTT
Solution: 0.93

Exercise: Now the binder P54AR4-83v2 P24C, NEM conjugate (designed binder, not shown: small tags and cut ends, N-ethyl maleimide (NEM) on Cys 24) LPAPKNLVVSEVTEDSARLSWDDCWAFYESFLIQYQESEKVGEAIVLTVPGSERSYDLTGLKPGTEYTVSIYGVHNVYKDTNMRGLPLSAIFTT
Solution: 0.85

Exercise: Try this binder too: P54AR4-83v2 V41C, NEM conjugate (designed binder, not shown: small tags and cut ends, N-ethyl maleimide (NEM) on Cys 41) LPAPKNLVVSEVTEDSARLSWDDPWAFYESFLIQYQESEKCGEAIVLTVPGSERSYDLTGLKPGTEYTVSIYGVHNVYKDTNMRGLPLSAIFTT
Solution: 0.99

Exercise: Request: P54AR4-83v2 Q34C, NEM conjugate (designed binder, not shown: small tags and cut ends, N-ethyl maleimide (NEM) on Cys 34) LPAPKNLVVSEVTEDSARLSWDDPWAFYESFLICYQESEKVGEAIVLTVPGSERSYDLTGLKPGTEYTVSIYGVHNVYKDTNMRGLPLSAIFTT
Solution: 1.03

Exercise: Please give the result for P54AR4-83v2 M83C, NEM conjugate (designed binder, not shown: small tags and cut ends, N-ethyl maleimide (NEM) on Cys 83) LPAPKNLVVSEVTEDSARLSWDDPWAFYESFLIQYQESEKVGEAIVLTVPGSERSYDLTGLKPGTEYTVSIYGVHNVYKDTNCRGLPLSAIFTT too.
Solution: 0.04

Exercise: Repeat with P54AR4-83v2 K62C, NEM conjugate (designed binder, not shown: small tags and cut ends, N-ethyl maleimide (NEM) on Cys 62) LPAPKNLVVSEVTEDSARLSWDDPWAFYESFLIQYQESEKVGEAIVLTVPGSERSYDLTGLCPGTEYTVSIYGVHNVYKDTNMRGLPLSAIFTT
Solution: 0.73

Exercise: Please do the same for P54AR4-83v2 H75C, NEM conjugate (designed binder, not shown: small tags and cut ends, N-ethyl maleimide (NEM) on Cys 75) LPAPKNLVVSEVTEDSARLSWDDPWAFYESFLIQYQESEKVGEAIVLTVPGSERSYDLTGLKPGTEYTVSIYGVCNVYKDTNMRGLPLSAIFTT as well.
Solution: 0.19

Exercise: What do you have for P54AR4-83v2 P50C, NEM conjugate (designed binder, not shown: small tags and cut ends, N-ethyl maleimide (NEM) on Cys 50) LPAPKNLVVSEVTEDSARLSWDDPWAFYESFLIQYQESEKVGEAIVLTVCGSERSYDLTGLKPGTEYTVSIYGVHNVYKDTNMRGLPLSAIFTT ?
Solution: 1.05
